Cited source for all entries: patent US11311533B2

SYSTEM: OPRM1 (Mμ opioid receptor gene) receptor (Homo sapiens, UniProt P35372)
Sequence (P35372 whole entry): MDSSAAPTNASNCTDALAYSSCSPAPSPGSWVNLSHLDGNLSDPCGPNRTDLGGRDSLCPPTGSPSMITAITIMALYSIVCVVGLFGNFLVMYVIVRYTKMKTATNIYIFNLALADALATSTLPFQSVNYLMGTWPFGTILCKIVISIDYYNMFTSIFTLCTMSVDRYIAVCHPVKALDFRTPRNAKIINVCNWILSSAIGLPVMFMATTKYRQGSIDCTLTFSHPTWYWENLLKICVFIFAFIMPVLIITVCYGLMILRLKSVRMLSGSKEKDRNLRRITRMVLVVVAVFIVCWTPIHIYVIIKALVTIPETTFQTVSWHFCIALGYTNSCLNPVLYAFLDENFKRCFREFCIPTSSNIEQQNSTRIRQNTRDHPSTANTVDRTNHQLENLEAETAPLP
ASSAY PROCEDURE: cell-based
OBSERVABLE: IC50 (nM)
Numbers only, in nM.

IN: Give me measured IC50, please, for this compound: C=CCN1CC[C@]23c4c5ccc(O)c4O[C@H]2[C@@H](OCCOCCOCCOCCOCCOCCOCCOCCOC)CC[C@@]3(O)[C@H]1C5
OUT: 1050

Hello, I would appreciate it if you could give IC50 for each entry below.
1. Oc1ccc2c3c1O[C@H]1[C@@H](OCCOCCOCCOCCO[C@H]4CC[C@@]5(O)[C@H]6Cc7ccc(O)c8c7[C@@]5(CCN6CC5CC5)[C@H]4O8)CC[C@@]4(O)[C@@H](C2)N(CC2CC2)CC[C@]314 [Nal021, PEG4-(6-α-naltrexol)2-ether]
2. Oc1ccc2c3c1O[C@H]1[C@@H](OCCOCCOCCO[C@H]4CC[C@@]5(O)[C@H]6Cc7ccc(O)c8c7[C@@]5(CCN6CC5CC5)[C@H]4O8)CC[C@@]4(O)[C@@H](C2)N(CC2CC2)CC[C@]314 [Nal053, PEG3-(6-α-naltrexol)2-ether]
3. COCCOCCOCCOCCOCCOCCOCCOCCO[C@H]1CC[C@@]2(O)[C@H]3Cc4ccc(O)c5c4[C@@]2(CCN3CC2CC2)[C@H]1O5 [Nal041, mPEG8-(6-α-naltrexol)-ether]

OUT:
1. 229
2. 250
3. 210
